Origin of measurements: patent US9540350B2

- Tested on: C. albicans ATCC 24433
- Measurement Protocol: Antifungal susceptibility, broth dilution MIC (CLSI M27-A2)
- Type: cell-based
- Condition Context: Candida albicans, ATCC24433; C. albicans ATCC 24433; broth dilution, RPMI 1640 with MOPS, 48 hours; read-out: Activity against organisms (MIC50) Ca01
Reported values of MIC50 for individual entries
Provide only the numeric value, understood in mg/L.

O=C(/C=C/c1ccc(OCc2cn(CC(O)(Cn3cncn3)c3ccc(F)cc3F)nn2)cc1)c1ccc(OCC(O)(Cn2cncn2)c2ccc(F)cc2F)cc1 (stereo not shown)    0.25
COc1ccc(C(=O)/C=C/c2ccc(OCc3cn(CC(O)(Cn4cncn4)c4ccc(F)cc4F)nn3)cc2)cc1 (stereo not shown)    0.12
O=C(/C=C/c1ccccc1)c1ccc(OCc2cn(CC(O)(Cn3cncn3)c3ccc(F)cc3F)nn2)cc1 (stereo not shown)    0.12
Cc1ccc(OCc2cn(CC(O)(Cn3cncn3)c3ccc(F)cc3F)nn2)cc1 (stereo not shown)    0.12
CCCN1CCN(c2ccc(C(=O)/C=C/c3ccc(OCc4cn(CC(O)(Cn5cncn5)c5ccc(F)cc5F)nn4)cc3)cc2)CC1 (stereo not shown)    0.06
CCCCN1CCN(c2ccc(C(=O)/C=C/c3ccc(OCc4cn(CC(O)(Cn5cncn5)c5ccc(F)cc5F)nn4)cc3)cc2)CC1 (stereo not shown)    0.12
O=C(/C=C/c1cccs1)c1ccc(OCc2cn(CC(O)(Cn3cncn3)c3ccc(F)cc3F)nn2)cc1 (stereo not shown)    0.12
CCCCCCCCCC/C=C/c1ccc(OCc2cn(CC(O)(Cn3cncn3)c3ccc(F)cc3F)nn2)cc1 (stereo not shown)    1

We now examine a further compound.
Qu. What value of MIC50 has been reported for the following compound? Cc1ccc(/C=C/C(=O)c2ccc(OCc3cn(CC(O)(Cn4cncn4)c4ccc(F)cc4F)nn3)cc2)cc1 (stereo not shown)
Ans. 0.25

====

Reported values of MIC50 for individual entries
- Tested on: C. krusei ATCC 6258
- Measurement Protocol: Antifungal susceptibility, broth dilution MIC (CLSI M27-A2)
- Assay type: cell-based, Candida krusei
- Condition Context: Pichia kudriavzevii, ATCC6258; C. krusei ATCC 6258; broth dilution, RPMI 1640 with MOPS, 48 hours; read-out: Activity against organisms (MIC50) Ck01

O=C(/C=C/c1ccc(OCc2cn(CC(O)(Cn3cncn3)c3ccc(F)cc3F)nn2)cc1)C1CC1 (stereo not drawn)    > 32 µg/mL

Qu. Could you share what MIC50 was measured for COc1ccc(C(=O)/C=C/c2ccc(Cl)cc2)cc1 , tested on C. krusei ATCC 6258?
Ans. > 4 µg/mL

Qu. Could you share what MIC50 was measured for CCCCN1CCN(c2ccc(C(=O)/C=C/c3ccc(OCc4cn(CC(O)(Cn5cncn5)c5ccc(F)cc5F)nn4)cc3)cc2)CC1 (stereo not drawn) , tested on C. krusei ATCC 6258?
Ans. > 4 µg/mL

Qu. Could you share what MIC50 was measured for O=C(/C=C/c1ccc(O)cc1)c1ccc(O)cc1 , tested on C. krusei ATCC 6258?
Ans. > 32 µg/mL

Qu. Could you share what MIC50 was measured for CCCN1CCN(c2ccc(C(=O)/C=C/c3ccc(OCc4cn(CC(O)(Cn5cncn5)c5ccc(F)cc5F)nn4)cc3)cc2)CC1 (stereo not drawn) , tested on C. krusei ATCC 6258?
Ans. > 4 µg/mL

Qu. Could you share what MIC50 was measured for CCCCCCCCCC/C=C/c1ccc(OCc2cn(CC(O)(Cn3cncn3)c3ccc(F)cc3F)nn2)cc1 (stereo not drawn) , tested on C. krusei ATCC 6258?
Ans. > 2 µg/mL

Qu. Could you share what MIC50 was measured for OC(Cn1cncn1)(Cn1cc(COc2ccccc2)nn1)c1ccc(F)cc1F (stereo not drawn) , tested on C. krusei ATCC 6258?
Ans. > 128 µg/mL

Qu. Could you share what MIC50 was measured for COc1ccc(C(=O)/C=C/c2cccs2)cc1 [Compound 10A-2] , tested on C. krusei ATCC 6258?
Ans. > 8 µg/mL

Qu. Could you share what MIC50 was measured for Cc1cc(C#N)c(N)c(C#N)c1-c1ccc(OCc2cn(CC(O)(Cn3cncn3)c3ccc(F)cc3F)nn2)cc1 (stereo not drawn) , tested on C. krusei ATCC 6258?
Ans. > 8 µg/mL
